# Tested on: LXFL 529
# ASSAY: NCI tumour cell line growth inhibition, 48 h
The source made the active and inactive calls. No stated cut-off is given here; in the data, active = GI50 up to about 1.1 µM and inactive = higher.
Exercise: state measured GI50 for each of the molecules provided.

[in] I have this molecule here, O=C(O)C(CS)Nc1c2ccccc2[n+]([O-])c2ccccc12 (stereo not drawn) , and I need its recorded GI50.
[out] 53.7 µM (inactive)

[in] Moving on to the next molecule: `CCCn1c(SCCSc2c3ccccc3c(-c3nc(F)nc(F)n3)n2CCC)c2ccccc2c1-c1nc(F)nc(F)n1`
[out] 88.9 µM (inactive)

[in] Moving on to the next molecule: O=C(COc1ccccc1Cl)N1N=C(c2ccc(Cl)cc2)CC1(O)c1ccccc1 (stereo not drawn)
[out] > 100 µM (inactive)

[in] Moving on to the next molecule: `CCN(CC)CCC(=O)/C=C/c1ccc(C)cc1`
[out] 7.67 µM (inactive)

[in] Moving on to the next molecule: `Cc1cc(C)c(/C=N/NS(=O)(=O)c2ccccc2)c(C)c1`
[out] 62.2 µM (inactive)

[in] Moving on to the next molecule: CC(C)(C)[Si](OC1CC(n2cnc3c(N)ncnc32)OC1CO)(c1ccccc1)c1ccccc1 (stereo not drawn)
[out] 34.6 µM (inactive)

[in] Moving on to the next molecule: CCOC(OC(C)=O)[C@@H]1C=C[C@H](C)N(c2ccc([N+](=O)[O-])cc2)O1 (stereo partly drawn)
[out] 3.65 µM (inactive)

[in] Moving on to the next molecule: `CO[C@]12CCC(=O)N1C=Cc1c2[nH]c2ccccc12`
[out] > 100 µM (inactive)

====

Exercise: state measured GI50 for each of the molecules provided.
# System: MCF7
# ASSAY: NCI tumour cell line growth inhibition, 48 h
The source made the active and inactive calls. Cut-off read from the data, not from the text of the source: active = GI50 up to about 1.1 µM and inactive = higher.

[in] I have this molecule here, `O=c1[nH]nc(-c2ccccc2)n1/N=C\CC/C=N\n1c(-c2ccccc2)n[nH]c1=O` , and I need its recorded GI50.
[out] 26.7 µM (inactive)

[in] Moving on to the next molecule: COC(=O)/C=C/c1ccc2c(c1)CC1(C2)Cc2cc3c(cc2C1=O)CCC3 (stereo not given)
[out] > 100 µM (inactive)

[in] Moving on to the next molecule: `COC(=O)c1ccccc1C#CCCCOS(C)(=O)=O`
[out] > 10 µM (inactive)

[in] Moving on to the next molecule: `c1ccc(CSC(SCc2ccccc2)c2ccc3c(c2)OCO3)cc1`
[out] > 10 µM (inactive)

[in] Moving on to the next molecule: O=C(Nc1ccn(C2CC(I)C(COC(c3ccccc3)(c3ccccc3)c3ccccc3)O2)c(=O)n1)c1ccccc1 (stereo not given)
[out] 4.86 µM (inactive)

====

# Tested on: T47D
# ASSAY: NCI tumour cell line growth inhibition, 48 h
Active and inactive are the calls of the source. Rule as the data show it: active = GI50 up to about 1.1 µM and inactive = higher.
// allowed return values: active, inactive

[in] Record request — test call for `Nc1c(Br)cc2c(c1Br)Cc1cc(Br)ccc1-2`
[out] inactive

[in] Moving on to the next compound: O=C(O)CCCc1ccc(N(CCCl)CCCl)cc1 [CHLORAMBUCIL]
[out] inactive

[in] Moving on to the next compound: `Nc1nn2c(nc(N)c3c(N)n[nH]c32)c1/N=N\c1ccc(Br)cc1`
[out] inactive

[in] Moving on to the next compound: `CSc1ccc2c(cc1=O)[C@@H](NC(=O)c1ccc(N)cc1)CCc1cc(O)c(O)c(O)c1-2`
[out] inactive

[in] Moving on to the next compound: CC(Cc1ccccc1)N(C)Cc1nc(C2CCC([N+](=O)[O-])O2)no1 (stereo not drawn)
[out] inactive

[in] Moving on to the next compound: `Cc1cc(N(CCC#N)CCC#N)ccc1/C=N/NC(=O)c1ccccc1`
[out] inactive

[in] Moving on to the next compound: C1OCN2c3nonc3N3COCN4c5nonc5N1C2C43 (stereo not drawn)
[out] inactive

[in] Moving on to the next compound: `CC(=O)NNc1nc(C)c(C(=O)NNC(=O)C(=O)Nc2nc3ccc([N+](=O)[O-])cc3s2)s1`
[out] inactive

[in] Moving on to the next compound: `O=C1CCSc2c(cnc3ccccc23)N1`
[out] inactive

[in] Moving on to the next compound: `Nc1c(C(=O)Nc2ccc([As](=O)(O)O)cc2)cnc2nnnn12`
[out] inactive

[in] Moving on to the next compound: CCCCCCCCCCCC/C=C\CC[C@@H](O)[C@H](O)CC[C@H](O)[C@@H]1CC[C@@H](CCCCCCCC2=C[C@H](C)OC2=O)O1 [GIGANTRIONENIN]
[out] inactive

[in] Moving on to the next compound: Cc1[nH]c(=O)nc(S)c1C(=O)NC1C2CCCCC2NC2CCCCC21 (stereo not drawn)
[out] inactive

[in] Moving on to the next compound: `CC(=O)O[C@H]1C(=O)[C@@]2(C)[C@H]([C@H](OC(=O)c3ccccc3)[C@]3(O)C[C@H](OC(=O)[C@H](O)[C@@H](NC(=O)c4ccc(N)cc4)c4ccccc4)C(C)=C1C3(C)C)[C@]1(OC(C)=O)CO[C@@H]1C[C@@H]2O`
[out] active

[in] Moving on to the next compound: `O=C(CSc1nc2ccc(I)cc2c(=O)n1Cc1ccccc1)NNC(=O)c1ccccc1`
[out] inactive

[in] Moving on to the next compound: `COc1cc(C)cc2c(-c3c(O)cc(O)c4c3C[C@H](C)N[C@H]4C)cc(-c3cc(-c4c(O)cc(O)c5c4C[C@H](C)N[C@H]5C)c4cc(C)cc(OC)c4c3O)c(O)c12`
[out] inactive

[in] Moving on to the next compound: O1C2C1C1OC1C1OC1C1OC21 (stereo not drawn)
[out] inactive

[in] Moving on to the next compound: `COc1ccc(-c2c(C#N)c(N)nc3c2CCS(=O)(=O)c2ccccc2-3)cc1`
[out] inactive

[in] Moving on to the next compound: `CCSc1nc(N)c2c(-c3ccccc3)c3c(nc2n1)CCC3`
[out] inactive
